For each of the compounds below, state its IC50.
target: GTPase HRas [G12V] (Homo sapiens, UniProt P01112, G12V); assay: In Vitro Ras-Raf Binding Inhibitory Activity Assay
Sequence (P01112 whole entry G12V, looked up): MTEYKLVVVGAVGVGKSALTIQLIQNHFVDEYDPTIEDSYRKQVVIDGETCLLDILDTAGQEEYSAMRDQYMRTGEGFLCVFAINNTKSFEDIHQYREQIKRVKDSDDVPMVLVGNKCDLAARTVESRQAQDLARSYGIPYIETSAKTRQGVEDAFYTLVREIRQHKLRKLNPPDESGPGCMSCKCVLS
One number for each entry, in µM.

Consider the reported IC50 for these compounds:
> print(dat)
                                   compound  readout.kind  value.units  reported.measurement
1  COc1cc(/C=C2/C(=O)c3ccccc3N2C(C)=O)ccc1OCC(N)=O [US20250091994, Example 1]          IC50           µM                   6.9
2  COc1cc(C=C2C(=O)c3ccccc3N2C(C)=O)ccc1OCCO [US20250091994, Example 125]          IC50           µM                   2.8
3  COc1cc(/C=C2/C(=O)c3ccccc3N2C(C)=O)ccc1NC(=O)CN1CCOCC1 [US20250091994, Example 27]          IC50           µM                   2.7
4  CC(=O)N1/C(=C\c2cc(-c3cnn(C)c3)c3ccccc3n2)C(=O)c2ccccc21 [US20250091994, Example 177]          IC50           µM                   0.8

IN: Query (compound): CC(=O)Nc1cc(/C=C2/C(=O)c3ccccc3N2C(C)=O)nc2ccc(C(=O)N3CCOCC3)cc12 [US20250091994, Example 113] ; field requested: IC50
OUT: 0.68
